- Tested on: Culex pipiens pallens
- RUN DESCRIPTION: Test Example 10: Culex pipiens pallens larvae in treated water
- Format: in vivo
- CONDITION CONTEXT: 24 h, active ingredient concentration 3.5 ppm in ion-exchanged water, last-instar larvae, one day later, read-out: death rate
Recorded mortality at 3.5 ppm by entry

Some entries whose results are on file:
COMPOUND | mortality at 3.5 ppm
CCS(=O)(=O)c1cc(C(=O)Nc2ccc(Cl)cc2)cnc1-c1nc2cc(C(F)(F)F)cnc2n1C | ≥ 95%
CCOC(=O)c1cnc(-c2nc3cc([S+]([O-])C(F)(F)F)ccc3o2)c(S(=O)(=O)CC)c1 (stereo not shown) | ≥ 95%
CCS(=O)(=O)c1cc(C(=O)OC)cnc1-c1nc2cc(C(F)(F)F)cnc2n1C | ≥ 95%

In: Query: mortality at 3.5 ppm; subject: "CCS(=O)(=O)c1cc(C(=O)N2CCOCC2)cnc1-c1nc2cc(C(F)(F)F)cnc2n1C"
Out: ≥ 95%

In: Query: mortality at 3.5 ppm; subject: "CCS(=O)(=O)c1cc(C(=O)N(C)C)cnc1-c1nc2cc(C(F)(F)F)cnc2n1C"
Out: ≥ 95%

In: Query: mortality at 3.5 ppm; subject: "CCN(CC)C(=O)c1cnc(-c2nc3cc(C(F)(F)F)cnc3n2C)c(S(=O)(=O)CC)c1"
Out: ≥ 95%

In: Query: mortality at 3.5 ppm; subject: "CCS(=O)(=O)c1cc(C(=O)NC)cnc1-c1nc2cc(C(F)(F)F)cnc2n1C"
Out: ≥ 95%

In: Query: mortality at 3.5 ppm; subject: "CCS(=O)(=O)c1cc(C(=O)OCc2ccccc2)cnc1-c1nc2cc(C(F)(F)F)cnc2n1C"
Out: ≥ 95%

In: Query: mortality at 3.5 ppm; subject: "CCS(=O)(=O)c1cc(C(=O)OCC(F)(F)F)cnc1-c1nc2cc(C(F)(F)F)cnc2n1C"
Out: ≥ 95%

In: Query: mortality at 3.5 ppm; subject: CCS(=O)(=O)c1cc(C(N)=O)cnc1-c1nc2cc([S+]([O-])C(F)(F)F)ccc2o1 (stereo not shown)
Out: ≥ 95%
